Test system: FL5.12
test summary: Cytotoxicity against mouse FL5.12 cells after 48 hrs by DAPI or propidium iodide staining-based flow cytometric analysis
Type: functional, cell-based
test parameters: FL5.12, 48 h
value type: pIC50
// pIC50 is dimensionless: -log10 of concentration (M)

Known pIC50 results, listed for orientation:
- smiles string: "Cc1nc(/C=C/CCCCCc2ccc([C@H]3CCN[C@@H]3CO)cc2)co1.Cl"
  study system: "FL5.12"
  pIC50: 4.99
- smiles string: "CCCCCCCCc1ccc([C@@H]2CC[C@H]3C[C@H](CO)CN32)cc1.Cl"
  study system: "FL5.12"
  pIC50: 4.91
- smiles string: "CCCCCCCCc1ccc(C(=O)[C@H]2C[C@H](OP(=O)(O)O)CN2)cc1.Cl"
  study system: "FL5.12"
  pIC50: 4.89

(Q) What does the record list as pIC50 for `Cl.OC[C@H]1NCC[C@@H]1c1ccc(CCCOCc2ccccc2)cc1` ?
(A) 4.96
